# Test system: Normal human HEPM fibroblasts
# test summary: Cell Mat Assay: inhibition of normal cell growth (cell mat)
# Format: cell-based
# details: Fibroblast, mIC50, normal cell monolayer
# IC50 per entry
observed property: IC50

>  <molecule>
O=S(=O)(c1ccccc1)N1CCC/C(=C2\c3ccc(Cl)cc3CCc3cccnc32)C1 [Compound E-2E]

>  <experimental target>
Normal human HEPM fibroblasts

>  <recorded value>
> 50 µM

$$$$
>  <molecule>
O=S(=O)(c1cccs1)N1CCC/C(=C2\c3ccc(Cl)cc3CCc3cccnc32)C1 [Compound E-1G]

>  <experimental target>
Normal human HEPM fibroblasts

>  <recorded value>
> 25 µM

$$$$
>  <molecule>
O=S(=O)(c1ccc(F)cc1)N1CCC/C(=C2\c3ccc(Cl)cc3CCc3cccnc32)C1 [Compound E-2H]

>  <experimental target>
Normal human HEPM fibroblasts

>  <recorded value>
> 25 µM

$$$$

---

# experimental target: farnesyl protein transferase (FPT) (Rattus norvegicus, UniProt Q02293+Q04631)
# Construct: were partially purified from rat brain by ammonium sulfate fractionation; from tissue; host or cells: rat brain
# test summary: In vitro enzyme assay: inhibition of farnesyl protein transferase (FPT), Ras-CVLS farnesylation
# Format: biochemical
# details: Table 2; read-out: FPT IC50

>  <compound>
O=C(NCc1ccc(S(=O)(=O)N2CCC/C(=C3/c4ccc(Cl)cc4CCc4cccnc43)C2)s1)c1ccccc1

>  <value comparator>
>

>  <IC50 (µM)>
34

$$$$
>  <compound>
CC(=O)Nc1ccc(S(=O)(=O)N2CCC/C(=C3/c4ccc(Cl)cc4CCc4cccnc43)C2)cc1

>  <value comparator>
=

>  <IC50 (µM)>
33.5

$$$$
>  <compound>
O=S(=O)(c1ccccc1)N1CCC/C(=C2\c3ccc(Cl)cc3CCc3cc(Br)cnc32)C1

>  <value comparator>
=

>  <IC50 (µM)>
0.58

$$$$
>  <compound>
O=S(=O)(c1ccccc1)N1CCCC(C2c3ccc(Cl)cc3C=Cc3cccnc32)C1 (centres unmarked)

>  <value comparator>
=

>  <IC50 (µM)>
6.4

$$$$
>  <compound>
O=S(=O)(c1cccs1)N1CCC/C(=C2\c3ccc(Cl)cc3CCc3cc(Br)cnc32)C1

>  <value comparator>
=

>  <IC50 (µM)>
0.84

$$$$
>  <compound>
O=C(c1cccnc1)N1CCC/C(=C2\c3ccc(Cl)cc3CCc3cccnc32)C1

>  <value comparator>
>

>  <IC50 (µM)>
14.4

$$$$
>  <compound>
O=S(=O)(c1cccs1)N1CCC/C(=C2\c3ccc(Cl)cc3CCc3cccnc32)C1

>  <value comparator>
<

>  <IC50 (µM)>
0.44

$$$$
>  <compound>
O=C(CCc1ccccc1)N1CCC/C(=C2\c3ccc(Cl)cc3CCc3cccnc32)C1

>  <value comparator>
>

>  <IC50 (µM)>
45

$$$$

---

# IC50 per entry
# experimental target: farnesyl protein transferase (FPT) (Rattus norvegicus, UniProt Q02293+Q04631)
# Construct: were partially purified from rat brain by ammonium sulfate fractionation; from tissue; host or cells: rat brain
# test summary: In vitro enzyme assay: inhibition of farnesyl protein transferase (FPT), Ras-CVLS farnesylation
# Format: biochemical
# details: Table 2; read-out: FPT IC50

>  <molecule>
O=C(Cc1cccnc1)N1CCCC(C2c3ccc(Cl)cc3CCc3cccnc32)C1 (stereo not drawn) [Compound E-3C]

>  <unit>
µM

>  <value comparator>
=

>  <IC50>
8

$$$$
>  <molecule>
O=C(CSc1ccncc1)N1CC/C(=C2\c3ccc(Cl)cc3CCc3cccnc32)C1 [Compound E-3N]

>  <unit>
µM

>  <value comparator>
=

>  <IC50>
4.2

$$$$
>  <molecule>
O=S(=O)(c1cccs1)N1CCC/C(=C2/c3ccc(Cl)cc3CCc3cccnc32)C1 [Compound E-1J]

>  <unit>
µM

>  <value comparator>
=

>  <IC50>
4.8

$$$$
>  <molecule>
Cc1cc(C)c(S(=O)(=O)N2CCC/C(=C3\c4ccc(Cl)cc4CCc4cccnc43)C2)c(C)c1 [Compound E-2L]

>  <unit>
µM

>  <value comparator>
>

>  <IC50>
12

$$$$
>  <molecule>
O=S(=O)(c1ccc(F)cc1)N1CCC/C(=C2/c3ccc(Cl)cc3CCc3cccnc32)C1 [Compound E-2S]

>  <unit>
µM

>  <value comparator>
>

>  <IC50>
43

$$$$
>  <molecule>
CS(=O)(=O)N1CCCC(C2c3ccc(Cl)cc3C=Cc3cccnc32)C1 (stereo not drawn) [Compound E-2V]

>  <unit>
µM

>  <value comparator>
=

>  <IC50>
44

$$$$
